Tested on: DMS 273 small cell lung
Method: NCI tumour cell line growth inhibition, 48 h
Each record here notes measured TGI.

Compound	Study system	TGI
CC(=O)OC1[C@H]2c3cc4c(cc3CN3CCC(=C[C@@H]1O)C23)OCO4 (some centres undefined)	DMS 273 small cell lung	> 100 µM
O=c1[nH]c(=O)n(C2OC3COC2C3O)cc1F (centres undefined)	DMS 273 small cell lung	> 100 µM
O=C1C2Cc3ccccc3CN2C(=O)N1CCN1CCCC1 (centres undefined)	DMS 273 small cell lung	> 100 µM
CN[C@@H]1C[C@H]2O[C@@](C)([C@@H]1OC)n1c3ccccc3c3c4c(c5c6ccccc6n2c5c31)C(=O)N[C@@H]4O	DMS 273 small cell lung	0.637 µM
C=C=C(C(=O)OC)S(=O)c1ccc([N+](=O)[O-])cc1[N+](=O)[O-] (centres undefined)	DMS 273 small cell lung	64.1 µM
CC(=O)O[C@@H]1C2C(=O)OC(=O)C2C2CCC[C@]23O[C@H]13 (some centres undefined)	DMS 273 small cell lung	> 100 µM
O=[N+]([O-])c1ccc2c(c1)[O][Sn]([I])([I])[O]2	DMS 273 small cell lung	> 100 µM
O=C([CH-]C(=O)C(F)(F)F)c1ccccc1.O=C([CH-]C(=O)C(F)(F)F)c1ccccc1.O=C([CH-]C(=O)C(F)(F)F)c1ccccc1.O=C([CH-]C(=O)C(F)(F)F)c1ccccc1.[Eu+3].c1ccncc1	DMS 273 small cell lung	> 100 µM
CCOC(=O)CC1NC(=O)CS1 (centres undefined)	DMS 273 small cell lung	> 100 µM

* * *

System: SF-268 CNS
Method: NCI tumour cell line growth inhibition, 48 h
Measured parameter: TGI

> print(dat)
                                    compound  study.system  experimental.result
 1                    CC(C)(C)OC[C@H](O)CC#N    SF-268 CNS             > 100 µM
 2        CNC(=S)N/N=C/c1ccc([N+](=O)[O-])s1    SF-268 CNS              > 10 µM
 3                       c1nnc(NCNc2nncs2)s1    SF-268 CNS             > 100 µM
 4  COc1cc(/C=N/Nc2nnc3c4ccccc4c4ncccc4c3n2)cc(OC)c1OC    SF-268 CNS              > 10 µM
 5  O=[N+]([O-])c1ccc2c(c1)[O][Sn]([I])([I])[O]2    SF-268 CNS             > 100 µM
 6             Nc1ccc(S(=O)(=O)NCc2nccs2)cc1    SF-268 CNS              46.3 µM
 7  Cc1ccc(NC(=O)Cn2c(Br)nc3c2c(=O)n(C)c(=O)n3C)cc1    SF-268 CNS              22.8 µM
 8  COc1cc2c(cc1OC)-c1c3c(cc4c1[C@@H](C2)N(C)CC4)OCO3    SF-268 CNS              38.2 µM
 9  CN(C)C(=O)O[C@@H]1CN[C@@H](C#Cc2cc3ncnc(Nc4ccc(OCc5cccc(F)c5)c(Cl)c4)c3s2)C1    SF-268 CNS              > 25 µM
10  C=C=C(C(=O)OC)S(=O)c1ccc([N+](=O)[O-])cc1[N+](=O)[O-] (stereo unspecified)    SF-268 CNS            > 74.6 µM
11    COc1cc(Cn2c(-c3nonc3N)nc3ccccc32)ccc1C    SF-268 CNS             > 100 µM
